tested system: Ybr033w (UniProt P38073)
Sequence: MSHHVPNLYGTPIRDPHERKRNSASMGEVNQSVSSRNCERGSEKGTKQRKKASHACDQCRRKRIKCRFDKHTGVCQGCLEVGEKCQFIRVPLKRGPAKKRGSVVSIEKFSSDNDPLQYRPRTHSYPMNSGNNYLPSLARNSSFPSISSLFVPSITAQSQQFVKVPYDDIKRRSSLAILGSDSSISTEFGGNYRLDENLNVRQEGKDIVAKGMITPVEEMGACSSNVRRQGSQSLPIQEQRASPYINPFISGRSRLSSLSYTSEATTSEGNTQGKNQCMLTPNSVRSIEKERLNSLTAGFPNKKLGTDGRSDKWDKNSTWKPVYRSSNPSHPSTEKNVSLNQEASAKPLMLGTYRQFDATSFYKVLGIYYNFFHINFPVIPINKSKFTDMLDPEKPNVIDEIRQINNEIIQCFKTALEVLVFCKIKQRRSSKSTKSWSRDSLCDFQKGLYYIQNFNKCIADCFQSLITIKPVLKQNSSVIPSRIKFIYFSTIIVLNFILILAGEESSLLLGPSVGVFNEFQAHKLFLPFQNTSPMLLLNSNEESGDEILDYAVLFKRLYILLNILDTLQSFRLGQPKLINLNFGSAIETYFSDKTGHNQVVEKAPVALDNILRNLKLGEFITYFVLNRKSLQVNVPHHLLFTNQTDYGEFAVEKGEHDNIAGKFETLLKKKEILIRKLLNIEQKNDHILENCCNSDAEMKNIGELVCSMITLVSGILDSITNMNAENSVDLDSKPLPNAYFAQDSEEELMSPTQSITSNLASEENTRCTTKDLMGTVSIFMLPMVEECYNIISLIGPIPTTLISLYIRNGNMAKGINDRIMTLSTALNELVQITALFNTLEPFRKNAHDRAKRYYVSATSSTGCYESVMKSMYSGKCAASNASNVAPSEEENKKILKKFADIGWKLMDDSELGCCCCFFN
procedure summary: PBM E-score (8-mer binding enrichment) (E-score (-0.5 to 0.5)); higher = stronger / more preferred TF binding
run conditions: protein concentration: 200 nM; construct: GST-full length
Over roughly 33,000 sequences, “E-score (-0.5 to 0.5)” has its median near -0.012; the highest 2% begin near 0.29. This excerpt belongs to a sample that is enriched for the highest values.
Give PBM E-score for every item shown.
One number for each entry.

Known results for sequences:
GACTAGTA
0.0157
TCTCAAAA
0.143
TTGGAAAA
0.298

For each entry beneath this line, provide reported PBM E-score.
1. ATTGGCTA
2. CTGGAAAA
3. CATTTTAG
4. CTGTTGTC
5. ATTGTCTA

Solution:
1. 0.117
2. 0.377
3. 0.234
4. -0.0159
5. 0.144

For each entry beneath this line, provide reported PBM E-score.
1. ATCTACGC
2. CGGTGACG
3. AGGTCAGG
4. ACGACGTA
5. GTGATCAC

Solution:
[0.0459, -0.0845, -0.233, 0.0878, -0.181]

For each entry beneath this line, provide reported PBM E-score.
1. ATTGCCAA
2. CTTATTAA
3. CTGGAAAC
4. CCGATTTA

Solution:
[-0.00029, 0.17, -0.0702, 0.183]

For each entry beneath this line, provide reported PBM E-score.
1. ATTATTAC
2. AAATATAC
3. CCGACCAA
4. ATTCGAGA
5. GTGGAAAC
6. TAATATAA
7. GTGGAAAA

Solution:
1: 0.343; 2: 0.312; 3: -0.0529; 4: 0.023; 5: -0.0663; 6: 0.379; 7: 0.298
